test.method.notes: blood morphology, blood biochemistry and organ weights of mice with 67NR tumor
condition.description: Table S2, mice with 67NR tumor, 50 mg/kg
Each record here notes measured PDW.

NS(=O)(=O)Oc1ccc(-c2cn(-c3cccc(Cl)c3)nn2)cc1 ... 24,9±3 fL
NS(=O)(=O)Oc1ccc(-c2cn(-c3cc(F)cc(F)c3)nn2)cc1 ... 29,3±4,6 fL
NS(=O)(=O)Oc1ccc(-c2cn(-c3ccc(F)c(F)c3F)nn2)cc1 ... 25,6±3,8 fL
NS(=O)(=O)Oc1ccc(-c2cn(-c3cc(Cl)cc(Cl)c3)nn2)cc1 ... 27,1±3,2 fL

Switching to the query record.
*Q* Input NS(=O)(=O)Oc1ccc(-c2cn(-c3cccc(F)c3)nn2)cc1 , output reported PDW.
*A* 26,9±4,8 fL

====

Each record here notes measured PCT.
test.method.notes: blood morphology, blood biochemistry and organ weights of mice with 67NR tumor
condition.description: Table S2, mice with 67NR tumor, 50 mg/kg

NS(=O)(=O)Oc1ccc(-c2cn(-c3cccc(F)c3)nn2)cc1 ... 0,255±0,04%
NS(=O)(=O)Oc1ccc(-c2cn(-c3cccc(Cl)c3)nn2)cc1 ... 0,250±0,03%
NS(=O)(=O)Oc1ccc(-c2cn(-c3cc(F)cc(F)c3)nn2)cc1 ... 0,233±0,035%
NS(=O)(=O)Oc1ccc(-c2cn(-c3cc(Cl)cc(Cl)c3)nn2)cc1 ... 0,248±0,03%

Switching to the query record.
*Q* Input NS(=O)(=O)Oc1ccc(-c2cn(-c3ccc(F)c(F)c3F)nn2)cc1 , output reported PCT.
*A* 0,280±0,04%

====

Each record here notes measured mice responded to the treatment.
Tested on: 67NR mouse mammary tumor cells
test.method.notes: antitumor activity in 67NR orthotopic mouse breast carcinoma model
Assay type: in vivo, BALB/c mice
condition.description: 50 mg/kg b.w. per os; nine mice/group
Report as a plain number; the unit mice is understood.

The examples below pair each entry with its known result.
NS(=O)(=O)Oc1ccc(-c2cn(-c3cc(Cl)cc(Cl)c3)nn2)cc1 [4b] ... 7
NS(=O)(=O)Oc1ccc(-c2cn(-c3cccc(F)c3)nn2)cc1 [5g] ... 8
NS(=O)(=O)Oc1ccc(-c2cn(-c3cccc(Cl)c3)nn2)cc1 [4a] ... 7

*Q* Input NS(=O)(=O)Oc1ccc(-c2cn(-c3cc(F)cc(F)c3)nn2)cc1 [5l] , output reported mice responded to the treatment.
*A* 8

====

value.type: melting point

*Q* Input COc1cc(OC)cc(-n2cc(-c3ccc(OS(N)(=O)=O)cc3)nn2)c1 , output reported melting point.
*A* 225 to 227 °C (dec.)

*Q* Input NS(=O)(=O)Oc1ccc(-c2cn(-c3cc(I)cc(I)c3)nn2)cc1 , output reported melting point.
*A* 213 to 216 °C (dec.)

*Q* Input NS(=O)(=O)Oc1ccc(-c2cn(-c3cccc([N+](=O)[O-])c3)nn2)cc1 , output reported melting point.
*A* 225 to 226 °C (dec.)

*Q* Input NS(=O)(=O)Oc1ccc(-c2cn(-c3cc(Br)cc(Br)c3)nn2)cc1 , output reported melting point.
*A* 228 to 229 °C (dec.)

*Q* Input NS(=O)(=O)Oc1ccc(-c2cn(-c3cccc(Br)c3)nn2)cc1 , output reported melting point.
*A* 212 to 213 °C (dec.)
